Origin of the recorded values: the supplement of paper PMC9170038

- Tested on: MS2 coat protein
- Protocol Summary: apparent KD of MS2 coat protein; designed switch direction (-1 OFF switch, 1 ON switch): 1; higher = weaker reporter binding
- Stated Conditions: Eterna round: R95; input ligand: none
Would you mind telling me the reported apparent KD of MS2 coat protein of each entry?
Please reply with the bare figure in nM and do not write the unit itself.

# input Give apparent KD of MS2 coat protein only, for CGUCCAGCCUGAGCUGGACAAAAGCAUGUACAUGAGGAUCACCCAUGUUCAUGUACAAGCUUUUUGCUCGUCUUACA [salish99_208a_r3_091x] (puzzle: Sensor for hsa-mir-208a) , using MS2 coat protein data.
# output 695

# input Give apparent KD of MS2 coat protein only, for UAGUACAUGCUUUUUGUCUGUCUUAGAUCACAUGAGGAUCACCCAUGUUUGGUGAAAGUUAUUUUGUUUAUGACUAU [JR_SHM208A_Sub060] (puzzle: Sensor for hsa-mir-208a) , using MS2 coat protein data.
# output 430

# input Give apparent KD of MS2 coat protein only, for CGUCCGGCCUGUGCUGGCCGGUGGCUUGUACAUGAGGAUCACCCAUGUUCUUGUGCUGGCUUUUUGCUCGUCUUGUG [salish99_mir208a_021] (puzzle: Sensor for hsa-mir-208a) , using MS2 coat protein data.
# output 43.8

# input Give apparent KD of MS2 coat protein only, for AGAGCCGGCACUGAGGAUAUUCAUAUUAAAACAUGAGGAUCACCCAUGUAGGCCAGAAGGCCUUGGGAGAAGGCAGGUCGGCUCA [Mat - Same State 2 - Mod of UCT - D58] (puzzle: Same State 2) , using MS2 coat protein data.
# output 484

# input Give apparent KD of MS2 coat protein only, for AAAAUACAUGAGGAUCACCCAUGUAGAAACUACACAGGAUAUCGGACGGCUAUAACCGAACGAGAAGGGUGAACCC [Onorvea] (puzzle: Same State 1) , using MS2 coat protein data.
# output 362
